Entry source: ChEMBL document CHEMBL3988442

molecular target: Arginase-2, mitochondrial (Homo sapiens); test: in vitro enzyme assay to detect the production of urea directly proportional to the activity of Arginase II; format: functional; design: scale not given: in the data most compounds retested in dose-response had high values; details: 33.3 µM
attribute.measured: Percent Effect (%)
Give the value, in units of %, as a plain number.

Let me know recorded Percent Effect for Cn1nc(C2CN(C(=O)c3cscn3)C2)c2nccnc21 , thanks. 2.55

Please report Percent Effect for the following compound: CN(Cc1nc(C2CC2)no1)C1CCCN(c2cccnn2)C1 (stereo not given) 1.14

Recall and state the measured Percent Effect for CC(C)n1cc(CN2CCCN(C(=O)c3nccnc3N)CC2)cn1 . 5.83

State, in one line, measured Percent Effect of O=C(c1ccoc1)N1CC[C@H]2OCC[C@@]2(COc2ncccc2F)C1 2.73

Determine its reported Percent Effect: Cc1noc([C@@]23CCO[C@@H]2CCN(C(=O)c2sccc2C)C3)n1 -46.1

Annotate the compound Cn1ccnc1CN1CCC2(COCCN(Cc3ccsc3)C2)C1 (stereo not given) with its measured Percent Effect. -11

Name the recorded Percent Effect of the item CN(C)CCCNC(=O)CNC(=O)N1CCc2c([nH]c3ccccc23)C1 in your answer. -10.4

Read the entry CC(=O)N1CCOCC2(CN(Cc3ccc(C)o3)CCO2)C1 (stereo not given) and write its reported Percent Effect. 0.699

Quote Percent Effect reported for COc1cccc(OCCNC(=O)CN2CCN(C)CC2C)c1 (stereo not given) please. -2.77

Give reported Percent Effect value for COc1cccc(CN2CCCCCC2c2cccs2)c1O (stereo not given) 4.52

Report Percent Effect for COc1cc(C(=O)N(CCC#N)Cc2ccccn2)cc(OC)c1C -1.04

Fill in reported Percent Effect for this entry: NC(=O)COc1ccc(CNCc2ccc(F)cc2F)cc1 24.7

Specify measured Percent Effect for CCN(Cc1ccc2c(c1)OCO2)C(=O)NC(C)Cn1cccn1 (stereo not given) . 1.42

Give the value of Percent Effect reported for the following: Cc1ccc(NC2CCN(C(=O)c3ccsc3)CC2)nn1 -1.07

Specify Percent Effect for CCCn1nc2c(cc1=O)CN(CCCS(N)(=O)=O)CC2 and stop. 6.01

Using the record for CCN1CCCN(C(=O)c2cnc(OC(C)C)c(Cl)c2)CC1 , state its measured Percent Effect. -1.2

Provide one value: measured Percent Effect of CC1CCc2nc(O)c(C(=O)NCc3cccc(F)c3)cc2C1 (stereo not given) -5.46

Tell me Percent Effect reported for Cc1ccc(C(=O)N2CCC3(CCC(=O)N(CC(N)=O)C3)CC2)c(O)c1 -2.65

In one line, give reported Percent Effect of the entry COc1ccc(C(=O)N2CCCC(CNS(C)(=O)=O)C2)cc1F (stereo not given) . 2.4

# return recorded Percent Effect for input O=C(C1CC=CC1)N1CCc2c(COCc3ccncc3)cncc2C1 -1.2

Name the recorded Percent Effect of the item O=C(C1CC(=O)N(C2CCCC2)C1)N1CCN(CCn2cccc2)CC1 (stereo not given) in your answer. 13.5

Give me measured Percent Effect, please, for this compound: Cc1nc(CN2CCCC2c2c(C)nn(C)c2Cl)no1 (stereo not given) -3.24

Name the recorded Percent Effect of the item O=C(Nc1cn[nH]c1)c1ccc(O)nc1 in your answer. -0.766

Could you please provide reported Percent Effect for c1cnnc(NCC2CN(Cc3cccc4c3OCCO4)CCO2)c1 (stereo not given) ? Thanks! -2.13

Answer with reported Percent Effect of CN1Cc2c(C(=O)Nc3cccnc3)ncn2-c2ccccc2S1(=O)=O -4.39

----------
tested on: Trypanosoma cruzi; experiment: Trypanosoma cruzi phosphomannomutase and mannose-1-phosphate guanylyltransferase assay; type: functional; design: scale not given: direction of the effect not stated beside the values; conditions: 10 µM
attribute.measured: Percent Effect (%)
Entry rule: numbers only, all in %.

Specify reported Percent Effect for the molecule shown: Cc1nnc(NCc2cccnc2N(C)C)c(C#N)c1C 2.88

// Input: CCN(C1CCS(=O)(=O)C1)S(=O)(=O)c1cccc2cc(C)cnc12 (stereo unspecified) . Output its Percent Effect only. -4.01

Provide Percent Effect value for the following molecule: CC(NC(=O)CCC(=O)c1cccs1)c1nnc2n1CCCCC2 (stereo unspecified) -3.06

Answer with reported Percent Effect of Cc1csc(N2CCN(C(=O)CCC(=O)c3ccc(C)s3)CC2)n1 1.79

Indicate its recorded Percent Effect; the molecule in question is O=C(c1cccn1Cc1cccs1)N1CCCC1Cn1cccn1 (stereo unspecified) 8.68

Note Percent Effect for the molecule shown: Cc1nn(C)c(N(C)C)c1CNC1CCc2c(F)cccc21 (stereo unspecified) 4.89

Specify Percent Effect for Cc1ncc(-c2nc3cc(S(=O)(=O)N4CCCC4)ccc3n2C)cn1 and stop. 0

Respond only with Percent Effect recorded for CS(=O)(=O)NC[C@]12COC[C@H]1CN(C(=O)c1ccccc1)C2 -4.63

Give the measured Percent Effect for O=C(CSc1ccccc1Cl)NS(=O)(=O)c1ccc2c(c1)OCCO2 1.69

Specify reported Percent Effect for the molecule shown: O=C(c1ccsc1)N1CCc2c(CNc3ncccn3)n[nH]c2C1 6.95

Return Percent Effect (reported value) for this molecule: Cn1cc(CN2CCC3(CCCN(Cc4ccccn4)C3)CC2)cn1 2.98

Could you please provide reported Percent Effect for Cc1cc(-c2nnn(CCNS(C)(=O)=O)n2)ccc1F ? Thanks! 3.17

Respond only with Percent Effect recorded for COc1cccc(CNCc2c(C(C)C)nn(C)c2N(C)C)c1OC -7.33

Identify measured Percent Effect associated with CC[C@@]1(O)CCN(C(=O)c2ccc(SC)cc2)C[C@H]1O 6.9

For Cc1nnc2n1CCN(CCS(=O)(=O)c1ccccc1)C2 , write its Percent Effect. 1.69

Return Percent Effect for the following molecule: N#CC(Sc1nnnn1C1CCOCC1)C1CCCCC1 (stereo unspecified) -5.55

In one line, give reported Percent Effect of the entry CCn1c(N)nc2cc(C(=O)NCc3ccccc3Cl)cnc21 . -0.196

Write down Percent Effect measured for item COCCCC(=O)NS(=O)(=O)c1ccc2c(c1)OCCCO2 -7.94

Indicate its recorded Percent Effect; the molecule in question is COc1ccccc1OC1(C(=O)O)CCN(c2nccnc2C)CC1 1.19

Recall and state the measured Percent Effect for CCOCC(=O)N1C[C@@H](NC(C)=O)[C@H](c2ccc(OC)cc2)C1 . 2.63

Identify Percent Effect associated with the molecule CC(C)c1nccn1CCCNC(=O)c1ccc(-c2cncnc2)nc1 3.21

For the molecule CS(=O)(=O)NCCCN1CCCC1Cc1ccccc1 (stereo unspecified) , give its measured Percent Effect value. 3.49

Fill in Percent Effect for record O=C(CCNC(=O)C1CCCC1)NCc1ccccc1Cn1cncn1 -1.96

State its Percent Effect: CN(Cc1ccc(F)cc1)CC1(O)CCN(C(=O)c2cccn2C)C1 (stereo unspecified) 3.15

Fill in Percent Effect for record O=C1COC2(CCN(CC3CC3)CC2)CN1c1ccccc1 4.17

Identify measured Percent Effect associated with Cc1ccc(CC2CCCN2CC(=O)NCc2ccccn2)cc1 (stereo unspecified) -1.66

State, in one line, measured Percent Effect of Cc1cc(C2CCCN(CCc3ccccn3)C2)n[nH]1 (stereo unspecified) 9.73

Complete the entry with Percent Effect for CN1CCOC(CNCc2cccc(OCC(F)(F)F)c2)C1 (stereo unspecified) -1.79

Answer with the recorded Percent Effect of Cc1cc(C)n(CC(=O)NC(Cc2ccsc2)c2ccccn2)c(=O)n1 (stereo unspecified) only. 8.5

Give Percent Effect for Cc1nc(C)c2c(n1)CCN(C(=O)CC1CC1)CC2 -5.57

Given O=C(CSCC1CC1)N1CCCC(c2nccn2Cc2ccncc2)C1 (stereo unspecified) , respond with its Percent Effect. 2.62

# return recorded Percent Effect for input CN1CCCC1CNC(=O)CCCOc1ccc(F)cc1 (stereo unspecified) 4.7

Check the records and state Percent Effect for Cc1ccc(S(=O)(=O)N2CCc3nc(C4CCNCC4)ncc3C2)cc1 2.77

Report measured Percent Effect; entry is CN(C)C(=O)NC[C@H]1OC[C@@H]2CCN(Cc3ccoc3)C[C@@H]21 -5.41

Identify the reported Percent Effect for the following entry. COC(=O)c1sccc1S(=O)(=O)NCC1(O)CCOc2ccccc21 (stereo unspecified) -3.72

Give a short answer stating reported Percent Effect for CC(=O)NCC(=O)N1CCn2cc(CN3CCN(C)CC3)nc2C1 . 7.57

----------
target: Sialic acid-binding Ig-like lectin 9 (Homo sapiens) (UniProt Q9Y336); assay: Hs-Siglec9 ALPHAscreen SOP 20170721; set-up: scale not given: direction of the effect not stated beside the values; settings: 10 µM
Sequence (Q9Y336 whole entry): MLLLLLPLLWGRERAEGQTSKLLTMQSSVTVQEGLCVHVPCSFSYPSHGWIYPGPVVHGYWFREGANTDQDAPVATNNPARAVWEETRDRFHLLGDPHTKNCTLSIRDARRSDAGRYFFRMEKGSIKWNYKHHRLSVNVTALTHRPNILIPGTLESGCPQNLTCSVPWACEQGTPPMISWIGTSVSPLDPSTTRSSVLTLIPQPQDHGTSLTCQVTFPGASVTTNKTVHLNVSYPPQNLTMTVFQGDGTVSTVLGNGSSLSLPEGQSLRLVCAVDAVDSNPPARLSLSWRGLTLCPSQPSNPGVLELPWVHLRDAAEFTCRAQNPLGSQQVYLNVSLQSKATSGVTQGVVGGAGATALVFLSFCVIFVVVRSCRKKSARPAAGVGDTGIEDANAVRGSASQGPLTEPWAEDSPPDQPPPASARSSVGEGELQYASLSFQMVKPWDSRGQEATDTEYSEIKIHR
Would you mind telling me the reported Percent Effect of each entry?

Provide Percent Effect, tested on Sialic acid-binding Ig-like lectin 9 (Homo sapiens) (UniProt Q9Y336), for CCc1n[nH]c(C2CN(C(=O)c3csnn3)CCO2)n1 (stereo not given) . 4.09%

Give Sialic acid-binding Ig-like lectin 9 (Homo sapiens) (UniProt Q9Y336) Percent Effect for the following molecule: O=C(Nc1nccs1)N(CCO)Cc1ccsc1 -1.76%

Quote Percent Effect with test system Sialic acid-binding Ig-like lectin 9 (Homo sapiens) (UniProt Q9Y336) for COc1cccc(CN(C)C(=O)Nc2ccc3c(c2)OCCO3)c1 -10.2%

// fetch Percent Effect for Cn1cc(C(=O)CC2CCCN2C(=O)c2n[nH]c3ccccc23)cn1 (stereo not given) ; system: Sialic acid-binding Ig-like lectin 9 (Homo sapiens) (UniProt Q9Y336) 0.382%

State measured Percent Effect of the molecule Cc1cc(C(=O)N2CCc3nnc(N)cc3C2)c(C)n1-c1cccnc1 with Sialic acid-binding Ig-like lectin 9 (Homo sapiens) (UniProt Q9Y336). 7.86%

Report Percent Effect from Sialic acid-binding Ig-like lectin 9 (Homo sapiens) (UniProt Q9Y336) testing of Cc1nc(COc2cccc(C#N)c2)no1 8.22%

Please report the measured Percent Effect for COc1ccc(OC)c(C(O)CN2CC(n3cccn3)C2)c1 (stereo not given) tested on Sialic acid-binding Ig-like lectin 9 (Homo sapiens) (UniProt Q9Y336). 6.6%

// fetch Percent Effect; item: Cc1ncc2c(n1)CCN(C(=O)Cc1c(C)noc1C)C2 ; system: Sialic acid-binding Ig-like lectin 9 (Homo sapiens) (UniProt Q9Y336) 7.88%

Report Percent Effect from Sialic acid-binding Ig-like lectin 9 (Homo sapiens) (UniProt Q9Y336) testing of CCSCCC(=O)Nc1ncn(Cc2cccnc2)n1 8.4%

Check Sialic acid-binding Ig-like lectin 9 (Homo sapiens) (UniProt Q9Y336) data and give Percent Effect for CN(C)CC1(O)CCN(S(=O)(=O)c2ccc(F)cc2)C1 (stereo not given) . -4.76%

Give Sialic acid-binding Ig-like lectin 9 (Homo sapiens) (UniProt Q9Y336) Percent Effect for the following molecule: Cn1nc(C2CCCN(C(=O)CO)C2)cc1O (stereo not given) -1.22%

Please look at CC(C)c1nc(C2CCCN2Cc2ccno2)no1 (stereo not given) and tell me its recorded Percent Effect on Sialic acid-binding Ig-like lectin 9 (Homo sapiens) (UniProt Q9Y336). 8.93%

State the measured Percent Effect (Sialic acid-binding Ig-like lectin 9 (Homo sapiens) (UniProt Q9Y336)) of COCCOc1ccc(NC(=O)C2CC(=O)N(C)C2)cn1 (stereo not given) -3.76%

Write Percent Effect of CC(C)N(C)Cc1cn2c(n1)CN(Cc1ccsc1)CC2 ; system used: Sialic acid-binding Ig-like lectin 9 (Homo sapiens) (UniProt Q9Y336) 6.24%

Jot down Percent Effect (Sialic acid-binding Ig-like lectin 9 (Homo sapiens) (UniProt Q9Y336)) of CCN(CC)C(=O)c1cc(C2CCCN2C)ccn1 (stereo not given) . -2.94%

Send back Sialic acid-binding Ig-like lectin 9 (Homo sapiens) (UniProt Q9Y336) Percent Effect of Cc1ccc(CNC(c2ccccc2)c2nccn2C)cc1C (stereo not given) only. 9.13%

Provide measured Percent Effect on Sialic acid-binding Ig-like lectin 9 (Homo sapiens) (UniProt Q9Y336) for O=C(c1cc(F)ccc1F)C1CCN(C(=O)c2ccccn2)CC1 please. -2.77%

Look up and report measured Percent Effect (Sialic acid-binding Ig-like lectin 9 (Homo sapiens) (UniProt Q9Y336)) for the following molecule: O=C1OC2(CCN(C3CCCOC3)CC2)CN1CCc1ccccc1 (stereo not given) 5.02%

Please indicate recorded Percent Effect of Cc1nn(C)c(C)c1CC(=O)N1CCC(Nc2cccnn2)CC1 measured with Sialic acid-binding Ig-like lectin 9 (Homo sapiens) (UniProt Q9Y336). -4.49%

For Sialic acid-binding Ig-like lectin 9 (Homo sapiens) (UniProt Q9Y336), give Percent Effect of the listed molecule: O=C(c1cscn1)N1CCC2(CCN(Cc3cccs3)CC2)C1 -2.27%

Jot down Percent Effect (Sialic acid-binding Ig-like lectin 9 (Homo sapiens) (UniProt Q9Y336)) of O=C(NC(CO)CO)c1coc(COc2cccc(F)c2)n1 . 15.9%

Answer with Percent Effect of COc1ccc(C(=O)NCC(c2cccn2C)N2CCCC2)c(OC)c1 (stereo not given) measured for Sialic acid-binding Ig-like lectin 9 (Homo sapiens) (UniProt Q9Y336). -1.12%

With Sialic acid-binding Ig-like lectin 9 (Homo sapiens) (UniProt Q9Y336) as the test system, provide measured Percent Effect for this molecule: CCCC(=O)Nc1sc(C(=O)OCC)c(C)c1C#N -8.77%

Please report Percent Effect with Sialic acid-binding Ig-like lectin 9 (Homo sapiens) (UniProt Q9Y336) for item O=C(NCc1cccc2cccnc12)N1CCC(n2cncn2)CC1 . 5.48%

Check Sialic acid-binding Ig-like lectin 9 (Homo sapiens) (UniProt Q9Y336) data and give Percent Effect for Cc1nc(C)n(CC2CCCN2CCc2cccs2)n1 (stereo not given) . -4.64%
